# tgt: DP IV (Homo sapiens)
# assay_text: DP IV inhibition IC50, parallel-synthesis compounds tested directly following synthesis (without purification)
# Format: biochemical
# Parameters: IC50 DP4; other: tested directly following parallel synthesis, without purification; compounds of formula (Ib) from parallel synthesis, tested directly following synthesis
# condition_context: DP IV inhibition; compounds of formula (Ib) from parallel synthesis, tested directly following synthesis (without purification); read-out: IC50
# IC50 per entry
endpoint_label: IC50 (µM)

• NCc1c(-c2ccc(Cl)cc2Cl)ncn1Cc1cccc(C(F)(F)F)c1F [50b] = 15.4
• C[C@H](N)c1c(-c2ccc(Cl)cc2Cl)ncn1CCc1c[nH]c2cc(Cl)ccc12 [101b] = 47.8
• CC(N)c1c(-c2ccc(Cl)cc2Cl)ncn1Cc1ccccn1 (centres unmarked) [96b] = 14.5
• COc1ccccc1Cn1cnc(-c2ccc(Cl)cc2Cl)c1CN [Example 120b] = 1.9
• NCc1c(-c2ccc(Cl)cc2Cl)ncn1Cc1ccc(Cl)c(Cl)c1 [77b] = 7.3
• NCc1c(-c2ccc(Cl)cc2Cl)ncn1Cc1cccnc1 [Example 121b] = 4.6
• NCc1c(-c2ccc(Cl)cc2Cl)ncn1CCc1c[nH]c2cc(F)ccc12 [114b] = 3.7
• CC(C)(C)CCn1cnc(-c2ccc(Cl)cc2Cl)c1CN [Example 23b] = 8.2
• NCc1c(-c2ccc(Cl)cc2Cl)ncn1Cc1ccc(Br)cc1 [25b] = 6.4
• NCc1c(-c2ccc(Cl)cc2Cl)ncn1Cc1ccc(-c2ccccc2)cc1 [75b] = 23.5
• NCc1c(-c2ccc(Cl)cc2Cl)ncn1Cc1ccccc1F [Example 112b] = 3.7
• NCc1c(-c2ccc(Cl)cc2Cl)ncn1CCc1ccccc1 [57b] = 9.1
• NCc1c(-c2ccc(Cl)cc2Cl)ncn1CCC(c1ccccc1)c1ccccc1 [53b] = 18.1
• NCc1c(-c2ccc(Cl)cc2Cl)ncn1Cc1ccc(Cl)cc1 [82b] = 15.4

====

# pIC50 per entry
# tgt: DP IV (Homo sapiens)
# assay_text: DP IV inhibition IC50, parallel-synthesis compounds tested directly following synthesis (without purification)
# Assay type: biochemical
# Set-up: IC50 DP4; other: tested directly following parallel synthesis, without purification; compounds of formula (Ib) from parallel synthesis, tested directly following synthesis
# condition_context: tested directly following parallel synthesis, without purification; read-out: IC50 DP4
pIC50: −log10 of the molar value.
endpoint_label: pIC50

* NCc1c(-c2ccc(Cl)cc2Cl)ncn1Cc1ccc(F)cc1 [Example 36a] | 7.00
* NCc1c(-c2ccc(F)cc2Cl)ncn1Cc1c(Cl)cccc1Cl [Example 26a] | 4.40
* NCc1c(-c2ccc(F)cc2Cl)ncn1Cc1cccc(Cl)c1Cl [Example 20a] | 4.46
* NCc1c(-c2ccc(Cl)cc2Cl)ncn1Cc1ccc2c(c1)OCO2 [Example 48a] | 7.00
* NCc1c(-c2ccc(Cl)cc2Cl)ncn1Cc1ccccc1OC(F)(F)F [Example 55a] | 7.00
* NCc1c(-c2ccc(Cl)cc2Cl)ncn1Cc1ccccn1 [Example 65a] | 5.72
* NCc1c(-c2ccc(F)cc2Cl)ncn1Cc1ccc(F)cc1 | 4.96
* Cc1ccc(Cn2cnc(-c3ccc(F)cc3Cl)c2CN)cc1 [Example 24a] | 4.36
* NCc1c(-c2ccc(Cl)cc2Cl)ncn1Cc1ccc(F)cc1F [Example 39a] | 6.00
* NCc1c(-c2ccc(F)cc2F)ncn1Cc1cc(Br)ccc1F [Example 79a] | 4.49
* NCc1c(-c2ccc(Cl)cc2Cl)ncn1Cc1ccsc1 [Example 43a] | 7.00
* CC(C)(C)Cn1cnc(-c2ccc(Cl)cc2Cl)c1CN [Example 53a] | 6.00
* CCn1cnc(-c2ccc(Cl)cc2Cl)c1CN [Example 59a] | 4.60
* NCc1c(-c2ccc(F)cc2F)ncn1Cc1ccccc1F [Example 86a] | 4.49
* NCc1c(-c2ccc(F)cc2Cl)ncn1Cc1ccccn1 [Example 30a] | 4.60
* NCc1c(-c2ccc(Cl)cc2Cl)ncn1Cc1ccccc1F [Example 62a] | 7.00
* NCc1c(-c2ccc(F)cc2Cl)ncn1Cc1ccco1 | 4.79
* NCc1c(-c2ccc(F)cc2Cl)ncn1Cc1cc(F)ccc1F [Example 27a] | 4.65
* CC(C)(C)Cn1cnc(-c2ccc(F)cc2F)c1CN [Example 83a] | 4.57
* Cc1ccccc1Cn1cnc(-c2ccc(Cl)cc2Cl)c1CN [Example 46a] | 6.00
* NCc1c(-c2ccc(Cl)cc2Cl)ncn1Cc1ccc(Cl)cc1 [Example 54a] | 5.72
* Cc1ccc(-c2ncn(Cc3ccccc3)c2CN)c(C)c1 [Example 69a] | 4.39
* CC(C)(C)Cn1cnc(-c2ccc(F)cc2Cl)c1CN [Example 21a] | 4.45
* NCc1c(-c2ccc(F)cc2Cl)ncn1Cc1cccc(F)c1 [Example 10a] | 4.84
* NCc1c(-c2ccc(Cl)cc2Cl)ncn1Cc1cccc(Cl)c1Cl [Example 52a] | 5.55
* NCc1c(-c2ccc(F)cc2Cl)ncn1Cc1cccs1 | 4.93
* CCCn1cnc(-c2ccc(Cl)cc2Cl)c1CN [Example 40a] | 5.43
* Cc1ccc(Cn2cnc(-c3ccc(Cl)cc3Cl)c2CN)cc1 [Example 56a] | 5.55
* NCc1c(-c2ccc(F)cc2F)ncn1Cc1ccco1 [Example 72a] | 4.93
* NCc1c(-c2ccc(Cl)cc2Cl)ncn1Cc1ccc(Cl)c(Cl)c1 [Example 58a] | 5.72
* NCc1c(-c2ccc(F)cc2F)ncn1Cc1ccc(F)cc1Cl [Example 87a] | 4.60
* NCc1c(-c2ccc(F)cc2Cl)ncn1Cc1ccsc1 [Example 11a] | 5.34
